# System: NCI-H322M lung
# experiment.description: NCI-60 one-dose screen, 48 h (100 = growth as untreated, 0 = no growth, -100 = all killed)
# recorded.conditions: 10 µM unless noted
The panel holds about 83,000 compounds, 20% with a hit somewhere; the sample as a whole holds those more often.
test.readout: growth (%)

- compound.string: "Cc1cc(OC(=O)c2ccc([N+](=O)[O-])cc2)nc2[nH]c(=O)sc12"
  recorded.number: 110
- compound.string: "NNC(=O)CNC(=O)Nc1n[nH]c(=S)s1"
  recorded.number: 103
- compound.string: "COC(=O)/C(CCC=C(C)C)=C1\\[C@@H](OC(C)=O)C[C@@]2(C)[C@H]1C[C@@H](O)[C@H]1[C@@]3(C)CC[C@H](NCc4ccccc4)[C@@H](C)[C@@H]3CC[C@@]12C"
  recorded.number: 91.5
- compound.string: "COc1ccc(-c2cc(=O)c3c(OC)c4ccoc4c(/C=C/C=O)c3o2)cc1"
  recorded.number: 51.2
- compound.string: "CC1=C(CC(=O)c2cccc([N+](=O)[O-])c2)C(=O)c2ccccc2C1=O"
  recorded.number: 68.7
- compound.string: "O=C(NC(=S)Nc1cccc(NC(=S)NC(=O)c2ccccc2)c1)c1ccccc1"
  recorded.number: 89
- compound.string: "COC(=O)c1cc2c(n1Cc1ccccc1)-c1oncc1CCC2"
  recorded.number: 114
- compound.string: "COc1ccc(-c2cn3c(C(=O)Nc4ccccc4Cl)c(-c4ccccc4)c4c3n2CCCC4)cc1"
  recorded.number: 102
- compound.string: "CCCCCCCCCCCCCCn1cc(C2=C(c3coc4ccc(OC)cc34)C(=O)NC2=O)c2ccccc21"
  recorded.number: 99.7

---

# System: U251 CNS
# experiment.description: NCI-60 one-dose screen, 48 h
# recorded.conditions: 10 µM unless noted
About 83,000 compounds went through this panel and 20% of them were active in at least one assay; those are over-represented in the sample as a whole. The source made the active and inactive calls. How the source made its calls: active means growth percent below 10; inactive means the rest.
Outcome codes: 1 for active, -1 for inactive

- compound: "CC1=NCC2NC(=O)NC(C)=C12 (stereo not given)"
  target.desc: "U251 CNS"
  label: -1
- compound: "O=c1c(-c2nc3ccccc3[nH]2)cc2ccccc2n1Cc1cn(Cc2ccccc2Cl)nn1"
  target.desc: "U251 CNS"
  label: -1
- compound: "COc1ccc(-c2cn3c(C(=O)Nc4ccccc4Cl)c(-c4ccccc4)c4c3n2CCCC4)cc1"
  target.desc: "U251 CNS"
  label: -1
- compound: "COc1ccccc1N1CCN(C(CNS(=O)(=O)c2ccc(Cl)cc2)c2cccnc2)CC1 (stereo not given)"
  target.desc: "U251 CNS"
  label: -1
- compound: "Nc1ccc(C2c3ccccc3Oc3ccccc32)cc1"
  target.desc: "U251 CNS"
  label: -1
- compound: "COC(=O)/C(CCC=C(C)C)=C1\\[C@@H](OC(C)=O)C[C@@]2(C)[C@H]1CC(=O)N[C@H]1[C@@]3(C)CCNC(=O)[C@@H](C)[C@@H]3CC[C@@]12C"
  target.desc: "U251 CNS"
  label: -1
- compound: "Cc1ccc(CN2CCC(C(=O)Nc3ccc(-c4cc5ccccc5[nH]4)cc3)CC2)o1"
  target.desc: "U251 CNS"
  label: -1
- compound: "NCCNc1nc2ccccc2c2c(=O)c3cc(F)cc(Cl)c3sc12"
  target.desc: "U251 CNS"
  label: 1
- compound: "COc1cc(/C=C2\\CCC/C(=C\\c3cc(CN4CCOCC4)c(O)c(OC)c3)C2=O)cc(CN2CCOCC2)c1O"
  target.desc: "U251 CNS"
  label: -1
- compound: "N#Cc1c(N)nc2c(c1N)C(c1ccc(F)cc1)c1ccc(N)cc1O2 (stereo not given)"
  target.desc: "U251 CNS"
  label: -1
- compound: "O=c1oc2ccc(-c3ccc(F)cc3F)cc2c(=O)n1-c1ccc(Cl)c(C(F)(F)F)c1"
  target.desc: "U251 CNS"
  label: 1
- compound: "COc1ccc(-c2nc(-c3ccccn3)c(-c3ccccn3)n2CC(C)C)cc1OC1CCCC1"
  target.desc: "U251 CNS"
  label: -1
- compound: "COc1cccc(/C(C#N)=C/c2nc3c(N4CCOCC4)nc(Cl)nc3n2C)c1"
  target.desc: "U251 CNS"
  label: 1
- compound: "CC/C(=C(\\CC)c1ccc(OCC[N+](C)(C)C)cc1)c1ccc(OC)cc1"
  target.desc: "U251 CNS"
  label: -1
- compound: "COc1cc2nc(NC3CCCC3)nc(NC3CCN(C(C)C)CC3)c2cc1OC"
  target.desc: "U251 CNS"
  label: -1
- compound: "O=C(N=Nc1c(O)[nH]c2ccccc12)c1oc2ccccc2c1CN1CCN(c2ccccc2)CC1"
  target.desc: "U251 CNS"
  label: 1
- compound: "CCOC(=O)c1cnc2c(C)cccc2c1Nc1ccc(C(C)=O)cc1"
  target.desc: "U251 CNS"
  label: 1
- compound: "O=C(Nc1nc2c(s1)CCc1c-2c(Br)n(Cc2ccccc2)c1Br)c1ccccc1"
  target.desc: "U251 CNS"
  label: -1
- compound: "Cc1ccc2nc(NC(=O)CSC(=S)N3CCN(c4ccccc4)CC3)sc2c1"
  target.desc: "U251 CNS"
  label: -1
- compound: "CCCCCCCCCCOC(=O)c1ccccc1C(=O)OCCCC"
  target.desc: "U251 CNS"
  label: -1
- compound: "COC(=O)c1c2c(c(C)[n+]([O-])c1C)C(=O)C(NCc1ccc(Br)cc1)=CC2=O"
  target.desc: "U251 CNS"
  label: 1
- compound: "Cn1cc(-c2ccc3ncc(-c4ccc(CC(=O)Nc5cc(C(C)(C)C)no5)cc4)nc3c2)cn1"
  target.desc: "U251 CNS"
  label: -1
- compound: "Oc1ccc(-c2nc(-c3ccc4oc5ccc(-c6[nH]c(-c7ccc(O)cc7)nc6-c6ccccc6)cc5c4c3)c(-c3ccccc3)[nH]2)cc1"
  target.desc: "U251 CNS"
  label: -1
- compound: "Clc1ccc(Nc2nnc(-c3ccc4c(c3)OCO4)o2)cc1"
  target.desc: "U251 CNS"
  label: -1
- compound: "O=C(Nc1ccc(C23CC4CC(CC(c5ccccc5)(C4)C2)C3)cc1)c1cccs1"
  target.desc: "U251 CNS"
  label: -1
- compound: "COc1ccc(/C=C/C(=O)c2ccc(Nc3nc(NCCO)nc(Nc4ccc(Cl)cc4)n3)cc2)cc1"
  target.desc: "U251 CNS"
  label: -1
- compound: "S=C1NC2(c3ccccc3)CCC(=S)N2c2ccccc21 (stereo not given)"
  target.desc: "U251 CNS"
  label: -1
- compound: "O=C1/C(=C\\c2ccc[nH]2)c2ccccc2N1c1ccccc1"
  target.desc: "U251 CNS"
  label: -1
- compound: "O=C(Nc1ccc(N2CCNCC2)cc1)c1[nH]ncc1Nc1cc(Oc2ccccc2)ncn1"
  target.desc: "U251 CNS"
  label: -1
- compound: "COC(=O)C1=C(C)NC(C)=C(C(=O)OC)C(N2C(=O)CCC2=O)C1 (stereo not given)"
  target.desc: "U251 CNS"
  label: -1
- compound: "CCCCc1ccc(NS(=O)(=O)c2cc3c4c(c2)CCN4C(=O)CC3)cc1"
  target.desc: "U251 CNS"
  label: -1
- compound: "CCCN1CCN(c2ccc3nc(-c4ccc5nc(-c6cc(OC)ccc6OC)[nH]c5c4)[nH]c3c2)CC1"
  target.desc: "U251 CNS"
  label: -1
- compound: "COc1ccc(C2C3=C(COC3=O)N(CCO)c3cc4c(cc32)CCC4)cc1OC (stereo not given)"
  target.desc: "U251 CNS"
  label: -1
- compound: "O=c1oc2ccc(F)cc2c(=O)n1-c1ccc(Br)cc1F"
  target.desc: "U251 CNS"
  label: 1
- compound: "Nc1nc(-c2ccccc2Br)nn1-c1nc2ccccc2s1"
  target.desc: "U251 CNS"
  label: -1
- compound: "CCCCN1CCN(c2ccc3nc(-c4ccc5nc(-c6ccc(C(F)(F)F)cc6)[nH]c5c4)[nH]c3c2)CC1"
  target.desc: "U251 CNS"
  label: 1
- compound: "CN(CCc1ccccc1)C(=S)N(C(=O)c1ccc([N+](=O)[O-])cc1)c1ccc(Cl)cc1"
  target.desc: "U251 CNS"
  label: -1
- compound: "O=C(CCc1nnc2sc(Cc3ccccc3Cl)nn12)c1nc2ncccc2[nH]1"
  target.desc: "U251 CNS"
  label: -1
- compound: "CCOC(=O)c1ccc2[nH]c(-c3ccccc3)cc(=O)c2c1"
  target.desc: "U251 CNS"
  label: -1
- compound: "N#C/C(=C1\\SC(=O)CN1c1ccccc1)c1nc2ccccc2s1"
  target.desc: "U251 CNS"
  label: -1
